Biological target: HIV-1 JR-CSF Env P299A (HIV-1 JR-CSF) (UniProt P20871)
Assay: cell-based or functional assay
readout-type: Fold IC50 increase relative to wild-type

## Input Please give the measured Fold IC50 increase relative to wild-type for this binder: PGT-127 (antibody, V domains shown) VH: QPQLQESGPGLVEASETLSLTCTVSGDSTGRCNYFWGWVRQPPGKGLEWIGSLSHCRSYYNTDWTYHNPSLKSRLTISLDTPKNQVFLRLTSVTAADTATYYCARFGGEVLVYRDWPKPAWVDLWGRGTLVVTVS VL: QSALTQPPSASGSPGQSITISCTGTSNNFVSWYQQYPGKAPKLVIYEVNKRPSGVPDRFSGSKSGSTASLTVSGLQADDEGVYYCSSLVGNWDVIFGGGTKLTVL
## Output 0.2 fold
